Cited source for all entries: patent US20230257372A1

subject_of_test: human recombinant HDAC6 (Homo sapiens)
Construct: purchased Calbiochem Inc. 382180
assay_comment: HDAC6 enzyme activity inhibition (HDAC Fluorimetric Drug Discovery Kit)
Type: biochemical
protocol_conditions: HDAC1 IC50 / HDAC6 IC50
metric: HDAC6 selectivity (fold)
Just the number in fold, nothing appended.

// solved cases for HDAC6 selectivity (fold) follow
compound_structure	unit_name	HDAC6 selectivity (fold)
CN1CCN(Cc2ccc(-c3cn(Cc4ccc(-c5nnc(C(F)F)o5)cc4F)nn3)cc2)CC1	fold	1253
CCN1CC(N2CCC(c3cccc(-c4cn(Cc5ccc(-c6nnc(C(F)F)o6)cc5F)nn4)c3)CC2)C1	fold	1106
FC(F)c1nnc(-c2ccc(Cn3cc(-c4cccc(CN5CCC(F)(F)CC5)c4)nn3)cc2)o1	fold	348

Problem: Input Fc1cc(-c2nnc(C(F)F)o2)ccc1Cn1cc(-c2cccc(NC3COC3)c2)nn1 , output reported HDAC6 selectivity (fold).
Solution: 1201

###

subject_of_test: human recombinant HDAC6 (Homo sapiens, UniProt Q9UBN7)
Construct: purchased Calbiochem Inc. 382180
Sequence (Q9UBN7 1-1215): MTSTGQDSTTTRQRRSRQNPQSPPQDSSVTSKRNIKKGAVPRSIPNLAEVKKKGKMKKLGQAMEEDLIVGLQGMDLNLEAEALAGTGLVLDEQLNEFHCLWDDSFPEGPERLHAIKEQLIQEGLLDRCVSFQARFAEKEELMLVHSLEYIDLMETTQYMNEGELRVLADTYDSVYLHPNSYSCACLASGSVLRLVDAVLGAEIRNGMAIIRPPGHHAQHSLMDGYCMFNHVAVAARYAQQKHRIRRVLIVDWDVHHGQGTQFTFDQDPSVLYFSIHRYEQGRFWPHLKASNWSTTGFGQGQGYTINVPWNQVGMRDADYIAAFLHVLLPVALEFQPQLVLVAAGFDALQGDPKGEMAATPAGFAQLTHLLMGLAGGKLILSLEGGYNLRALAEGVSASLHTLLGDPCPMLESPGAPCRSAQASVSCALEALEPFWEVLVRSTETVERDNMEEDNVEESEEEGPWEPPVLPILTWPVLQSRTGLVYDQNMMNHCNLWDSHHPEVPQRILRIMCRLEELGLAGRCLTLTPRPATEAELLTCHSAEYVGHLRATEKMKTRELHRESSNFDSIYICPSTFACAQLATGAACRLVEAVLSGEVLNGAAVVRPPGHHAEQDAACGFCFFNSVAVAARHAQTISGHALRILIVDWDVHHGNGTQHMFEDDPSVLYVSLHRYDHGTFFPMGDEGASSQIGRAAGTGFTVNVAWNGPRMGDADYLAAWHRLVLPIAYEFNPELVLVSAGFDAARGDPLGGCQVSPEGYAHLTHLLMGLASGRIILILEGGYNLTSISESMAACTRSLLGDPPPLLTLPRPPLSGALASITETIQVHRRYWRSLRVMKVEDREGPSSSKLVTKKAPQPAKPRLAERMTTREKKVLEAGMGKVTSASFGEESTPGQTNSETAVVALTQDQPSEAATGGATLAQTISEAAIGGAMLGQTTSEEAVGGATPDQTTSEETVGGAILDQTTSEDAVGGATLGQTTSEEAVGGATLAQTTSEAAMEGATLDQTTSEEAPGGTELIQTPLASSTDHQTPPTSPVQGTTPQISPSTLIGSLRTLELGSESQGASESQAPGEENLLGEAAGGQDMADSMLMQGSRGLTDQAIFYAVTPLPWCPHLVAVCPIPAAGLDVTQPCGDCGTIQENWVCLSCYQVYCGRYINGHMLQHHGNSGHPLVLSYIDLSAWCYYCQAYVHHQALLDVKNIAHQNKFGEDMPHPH
assay_comment: HDAC6 enzyme activity inhibition (HDAC Fluorimetric Drug Discovery Kit)
Type: biochemical
protocol_conditions: HDAC1 IC50 / HDAC6 IC50
Listed here: items and their measured HDAC6 selectivity (fold).
Answer format: value, then unit.

// solved cases for HDAC6 selectivity (fold) follow
compound_structure	HDAC6 selectivity (fold)
FC(F)c1nnc(-c2ccc(Cn3cc(-c4cccc(N5CCOCC5)c4)nn3)cc2)o1	765 fold
CN(C)c1cccc(-c2cn(Cc3ccc(-c4nnc(C(F)F)o4)cc3)nn2)c1	310 fold
Fc1cc(-c2nnc(C(F)F)o2)ccc1Cn1cc(-c2ccc3c(c2)CN(C2CCC2)CC3)nn1	1358 fold
CC(C)N1CCN(Cc2cccc(-c3cn(Cc4ccc(-c5nnc(C(F)F)o5)cc4)nn3)c2)CC1	427 fold
FC(F)c1nnc(-c2ccc(Cn3cc(-c4cccnc4)nn3)nc2)o1	1170 fold
FC(F)c1nnc(-c2ccc(Cn3cc(-c4ccc5sccc5c4)nn3)nc2)o1	602 fold

Problem: Input CC(=O)N1CCC(Nc2cccc(-c3cn(Cc4ccc(-c5nnc(C(F)F)o5)cc4F)nn3)c2F)CC1 , output reported HDAC6 selectivity (fold).
Solution: 1510 fold

Problem: Input Fc1cc(-c2cn(Cc3ccc(-c4nnc(C(F)F)o4)cn3)nn2)ccn1 , output reported HDAC6 selectivity (fold).
Solution: 729 fold

###

subject_of_test: human recombinant HDAC6 (Homo sapiens, UniProt Q9UBN7)
Construct: purchased Calbiochem Inc. 382180
Sequence (Q9UBN7 1-1215): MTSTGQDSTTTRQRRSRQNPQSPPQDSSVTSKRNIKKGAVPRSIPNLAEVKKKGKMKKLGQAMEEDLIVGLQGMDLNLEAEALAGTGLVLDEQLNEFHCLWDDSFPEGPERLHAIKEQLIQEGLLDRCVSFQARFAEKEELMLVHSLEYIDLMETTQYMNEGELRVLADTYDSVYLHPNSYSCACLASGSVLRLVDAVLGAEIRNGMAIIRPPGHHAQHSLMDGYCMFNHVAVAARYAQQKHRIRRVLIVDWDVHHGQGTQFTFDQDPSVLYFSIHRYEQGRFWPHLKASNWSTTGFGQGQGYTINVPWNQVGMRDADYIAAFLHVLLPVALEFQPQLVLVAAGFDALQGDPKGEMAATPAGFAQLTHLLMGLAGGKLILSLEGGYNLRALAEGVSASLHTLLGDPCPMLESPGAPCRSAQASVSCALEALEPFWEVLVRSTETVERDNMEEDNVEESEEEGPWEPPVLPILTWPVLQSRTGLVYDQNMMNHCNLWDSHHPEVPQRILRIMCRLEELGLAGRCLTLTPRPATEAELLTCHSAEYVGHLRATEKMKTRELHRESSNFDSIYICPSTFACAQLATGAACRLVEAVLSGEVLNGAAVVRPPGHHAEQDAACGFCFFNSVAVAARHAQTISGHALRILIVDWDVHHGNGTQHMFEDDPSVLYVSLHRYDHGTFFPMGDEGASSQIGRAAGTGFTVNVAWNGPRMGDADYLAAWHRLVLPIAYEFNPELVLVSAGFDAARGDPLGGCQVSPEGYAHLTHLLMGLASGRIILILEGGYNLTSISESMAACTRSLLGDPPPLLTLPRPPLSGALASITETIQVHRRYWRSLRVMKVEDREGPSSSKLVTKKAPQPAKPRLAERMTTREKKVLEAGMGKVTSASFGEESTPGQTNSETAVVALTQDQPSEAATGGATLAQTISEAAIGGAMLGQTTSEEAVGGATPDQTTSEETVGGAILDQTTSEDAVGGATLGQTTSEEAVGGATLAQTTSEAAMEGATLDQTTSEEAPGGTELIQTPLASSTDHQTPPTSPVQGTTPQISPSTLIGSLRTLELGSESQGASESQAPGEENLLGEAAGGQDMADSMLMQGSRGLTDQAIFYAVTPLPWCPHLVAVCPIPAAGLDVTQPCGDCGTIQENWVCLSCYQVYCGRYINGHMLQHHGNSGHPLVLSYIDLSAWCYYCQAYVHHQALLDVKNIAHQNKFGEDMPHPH
assay_comment: HDAC6 enzyme activity inhibition (HDAC Fluorimetric Drug Discovery Kit)
Assay type: biochemical
protocol_conditions: human recombinant HDAC6; IC50 calculated with GraphPad Prism
metric: pIC50
pIC50 is a log-scale quantity: -log10 of the concentration expressed in molar.

compound_structure	subject_of_test	pIC50
CCN1CCc2cc(-c3cn(Cc4ccc(-c5nnc(C(F)F)o5)cc4F)nn3)ccc2C1	human recombinant HDAC6 (Homo sapiens, UniProt Q9UBN7)	7.37
CC(=O)N1CCC(Nc2cccc(-c3cn(Cc4ccc(-c5nnc(C(F)F)o5)cc4F)nn3)c2F)CC1	human recombinant HDAC6 (Homo sapiens, UniProt Q9UBN7)	7.48
CC(C)(F)C(=O)Nc1cccc(-c2cn(Cc3ccc(-c4nnc(C(F)F)o4)cc3)nn2)c1	human recombinant HDAC6 (Homo sapiens, UniProt Q9UBN7)	7.23

Shift focus to the following entry.
Problem: Input CC1CCN(Cc2c[nH]c3cc(-c4cn(Cc5ccc(-c6nnc(C(F)F)o6)cc5)nn4)ccc23)CC1 , output reported pIC50.
Solution: 7.82

###

Listed here: items and their measured pIC50.
subject_of_test: human recombinant HDAC6 (Homo sapiens, UniProt Q9UBN7)
Construct: purchased Calbiochem Inc. 382180
assay_comment: HDAC6 enzyme activity inhibition (HDAC Fluorimetric Drug Discovery Kit)
Assay type: biochemical
protocol_conditions: human recombinant HDAC6, same protocol as HDAC1
pIC50 is a log-scale quantity: -log10 of the concentration expressed in molar.

compound_structure	pIC50
Fc1cc(-c2nnc(C(F)F)o2)ccc1Cn1cc(-c2cccc3c2CN(C2CCC2)C3)nn1	7.12
CCN1Cc2ccc(-c3cn(Cc4ccc(-c5nnc(C(F)F)o5)cc4F)nn3)cc2C1	7.13
Fc1cc(-c2nnc(C(F)F)o2)cnc1Cn1cc(-c2ccc(CN3CCCC3)cc2Cl)nn1	7.24

Shift focus to the following entry.
Problem: Input CN1CCN(c2cccc(-c3cn(Cc4ncc(-c5nnc(C(F)F)o5)cc4F)nn3)c2)CC1 , output reported pIC50.
Solution: 7.10
